Cited source: paper PMC11784145

- Tested on: plasma proteins
- Procedure Summary: Plasma protein binding, rapid equilibrium dialysis
- Assay type: in vitro ADME, bovine
- Test Settings: 10 µM compound, DMEM-F12 with 10% FBS (0.25 mg/mL BSA), 4 h, 37°C
Hi there, I'd appreciate the recorded Percent bound for every entry that follows.
The reply should be a number in %, with the unit left off.

Input "CC(=NOCc1cccc(F)c1)c1c(C)cc(=O)n(O)c1O" . Output Percent bound: 93.5

Input Nc1ccn([C@@H]2CS[C@H](CO)O2)c(=O)n1 [Lamivudine, lamivudine, reference compound] . Output Percent bound: 9.70

Input "CC(=NOCc1ccc(F)c(F)c1)c1c(C)cc(=O)n(O)c1O" . Output Percent bound: 100

Input "CC(=NOCc1cccc(C)c1)c1c(C)cc(=O)n(O)c1O" . Output Percent bound: 85.8

###

- Test system: HepDES19 cells
- Test Settings: read-out: HepDES19 CC50; 72 h, MTS; highest concentration tested 100 µM; mean ± SD
Reported Property: CC50 (µM)
The reply should be a number in µM, with the unit left off.

The reported CC50 value, HepDES19 cells, for "COc1ccc(CON=C(C)c2c(C)cc(=O)n(O)c2O)cc1OC" reads 91

The reported CC50 value, HepDES19 cells, for "CC(=NOCc1ccc2ccccc2c1)c1c(C)cc(=O)n(O)c1O" reads 64.3

The reported CC50 value, HepDES19 cells, for "CC(=NOCc1ccc(F)cc1F)c1c(C)cc(=O)n(O)c1O" reads 63.6

The reported CC50 value, HepDES19 cells, for "CC(=NOCc1ccccc1Br)c1c(C)cc(=O)n(O)c1O" reads 80.8

The reported CC50 value, HepDES19 cells, for "CC(=NOCc1ccc(Br)cc1)c1c(C)cc(=O)n(O)c1O" reads 76.7

###

- Procedure Summary: Solubility limit, turbidimetric assay
- Format: physicochemical
- Test Settings: pH 6.5, replicate 2; upper limit 200 µM
Hi there, I'd appreciate the recorded Sol 2 (solubility limit) for every entry that follows.

Input "CC(=NOCc1cccc(F)c1)c1c(C)cc(=O)n(O)c1O" . Output Sol 2 (solubility limit): > 200 µM

Input "CC(=NOCc1ccc(OCc2ccccc2)cc1)c1c(C)cc(=O)n(O)c1O" . Output Sol 2 (solubility limit): > 200 µM

Input "CC(=NOCc1ccc(OCc2ccc3ccccc3c2)cc1)c1c(C)cc(=O)n(O)c1O" . Output Sol 2 (solubility limit): > 200 µM

Input "CC(=NOCc1cccc(Br)c1)c1c(C)cc(=O)n(O)c1O" . Output Sol 2 (solubility limit): > 200 µM

Input "CC(=NOCc1ccc2ccccc2c1)c1c(C)cc(=O)n(O)c1O" . Output Sol 2 (solubility limit): > 200 µM

Input "CC(=NOCc1ccccc1C)c1c(C)cc(=O)n(O)c1O" . Output Sol 2 (solubility limit): > 200 µM

Input "COc1ccc(CON=C(C)c2c(C)cc(=O)n(O)c2O)cc1OC" . Output Sol 2 (solubility limit): > 200 µM

Input "CC(=NOCc1ccc(OCc2ccc(C(C)(C)C)cc2)cc1)c1c(C)cc(=O)n(O)c1O" . Output Sol 2 (solubility limit): > 200 µM

Input "CC(=NOCc1cccc(C)c1)c1c(C)cc(=O)n(O)c1O" . Output Sol 2 (solubility limit): > 200 µM

Input "CC(=NOCc1ccccc1Br)c1c(C)cc(=O)n(O)c1O" . Output Sol 2 (solubility limit): 100 µM

Input "CC(=NOCc1ccc(F)c(F)c1)c1c(C)cc(=O)n(O)c1O" . Output Sol 2 (solubility limit): > 200 µM

Input "CC(=NOCc1ccc(Br)cc1)c1c(C)cc(=O)n(O)c1O" . Output Sol 2 (solubility limit): 50 µM

Input "CC(=NOCc1ccc(C(F)(F)F)cc1)c1c(C)cc(=O)n(O)c1O" . Output Sol 2 (solubility limit): > 200 µM
